- System: P. berghei-ANKA-GFP-LucCON liver stage parasites in HepG2-A16-CD81EGFP cells
- Protocol notes: P. berghei liver stage Pb-Luc assay, Method 1 (UCSD, 1536-well)
- Type: cell-based, Plasmodium berghei
- Conditions used: Method 1; Decrease = decreasing P. berghei viability with dose, Increase = increasing signal, Inactive = no dose response
Value type: Max Resp (signal direction of the dose response)

> print(dat)
                                   compound  measured
1  N=c1ccn(Cc2ccc(Cl)c(Cl)c2)cc1 [MLS000080112-01]  Decrease
2  CCCCCCCNC(=O)C1(CC2CC(c3ccc(Cl)cc3)=NO2)CCN(C(=O)c2cc(OCC)c(OCC)c(OCC)c2)CC1 (stereo not shown) [MLS001143958-01]  Decrease
3  CCc1ccc(C2Sc3ccccc3N=C3C2=C(O)c2ccccc23)cc1 (stereo not shown) [NCGC00108831-01]  Decrease

---

What activity at 1 µM was measured for each of the following?
- Tested on: P. berghei-ANKA-GFP-LucCON liver stage parasites in HepG2-A16-CD81EGFP cells
- Protocol notes: P. berghei liver stage Pb-Luc assay, Method 1 (UCSD, 1536-well)
- Format: cell-based, Plasmodium berghei
- Conditions used: Plasmodium berghei, 48 h, P. berghei liver stage, 1 µM compound treatment (10 mM stocks), replicate 1, normalized, average of 2 wells on a 1536 well plate; read-out: PbLuc 1uM growth rep1
Answers are plain numbers, in %.

> print(dat)
                                   compound        value.type  unit.string  measured
1  Cc1ccc(Nc2cc(C)nc(NCc3ccccc3)n2)cc1 [MLS000574704-01]  activity at 1 µM            %        61

Can you give me activity at 1 µM for all of these, one by one?
1. O=C(CSc1nc(Nc2ccccc2)nc(N2CCOCC2)n1)Nc1cc(Cl)ccc1O [MLS001035450-01]
2. CCOC(=O)c1c(CN2CCN(c3ccccc3)CC2)oc2cc(Br)c(O)cc12 [MLS001198242-01]
3. CCOc1cccc(CNCCc2c(C)[nH]c3ccc(OC(F)(F)F)cc23)c1O.O=C(O)C(=O)O [MLS001198351-01]

97
136
46

---

Give AC50 for every item shown.
- System: luciferase-expressing P. berghei liver stage parasites in HepG2 cells
- Protocol notes: Inhibition of liver-stage development assay (ILSDA), Method 2 (WRAIR, 96-well)
- Format: cell-based, Plasmodium berghei
- Conditions used: Plasmodium berghei, HepG2, Method 2; Hill fit, 50% of maximum activity response; read-out: AC50
Answers are plain numbers, in nM.

Recorded results for 2 molecules are shown here.
> print(dat)
                                   molecule  unit.string  measured
1  O=C(Nc1ccc(N2CCN(c3ncccc3C(F)(F)F)CC2)nc1)c1cccs1           nM       447
2   CCO.Nc1nc(N)c2cc(Sc3ccc4ccccc4c3)ccc2n1           nM      2240

State recorded AC50 for all listed molecules.
1. Cc1cc(Nc2ccc(Br)c(C)c2)n2nc(C)nc2n1
2. CC(C)(C)C1CCc2[nH]c3ccccc3c(=O)c2C1 (centres unmarked)
3. Cc1ccc(C)c(NC2=C(c3ccc(C(F)(F)F)cc3)C(=O)c3ccccc32)c1

1: 794; 2: 282; 3: 398

---

- Protocol notes: in vitro
- Conditions used: human, HepG2-A16-CD81EGFP cells, uninfected
Value type: viability at 48 h, 1 µM (%)
Answers are plain numbers, in %.

Guide cases for viability at 48 h, 1 µM, answers given:
> print(dat)
                                   compound  measured
1  CC1=C(C(=O)Nc2ccc(C)cc2C)C(c2ccc(Br)cc2)n2ncc(C(=O)Nc3cccc(C)c3)c2N1 (centres unmarked) [NCGC00126300-01]       102
2  CC(C)(C)C1CCc2[nH]c3ccccc3c(=O)c2C1 (centres unmarked) [MLS000109039-01]        89
3  Oc1ccccc1-c1cc(-c2cccnc2)c2cncn2c1 [NCGC00412170-01]      98.3
4  Cc1cccc(NC2=C/C(=N\S(=O)(=O)c3cccs3)c3ccccc3C2=O)c1 [MLS000585840-01]       113
5  CCOC(=O)C1=C(c2ccccc2)N=c2sc(=Cc3cc(OC)c(OC)c(OC)c3)c(=O)n2C1c1cccs1 (centres unmarked) [MLS000572607-01]        82

Please look at the items below and tell me viability at 48 h, 1 µM for each one, in order.
1. OC(CNC1CCCCCC1)COc1cccc2ccccc12 (centres unmarked) [MLS001174634-01]
2. CCOc1ccccc1C1c2[nH]c3ccccc3c2C[C@H]2C(=O)N(C3CCN(Cc4ccccc4)CC3)CC(=O)N12 (some centres unmarked) [MLS001215140-01]
3. Cc1nn(-c2nnc(NCc3ccccc3)nn2)c(C)c1Br [MLS000704225-01]
4. CCCCN(C)CCNC(=O)c1cc2c(-c3cccc(OC)c3)nn(C)c2s1 [MLS001199565-01]
5. Nc1cc[n+](CC(=O)c2ccc3c(c2)OCCO3)cc1 [MLS000391090-01]
6. Cc1ccc2nc3c(c(Nc4ccc(O)cc4)c2c1)CCC3 [MLS001196969-01]

1. 103
2. 106
3. 105
4. 86
5. 97.8
6. 99

Hi team, please reply with viability at 48 h, 1 µM for each item in this list.
1. CCn1cc(C(=O)N[C@@H](CCSC)C(=O)NC(C)(C)CO)c(=O)c2cc3c(cc21)OCO3 [MLS001201727-01]
2. Cc1ccc(Nc2nc(NCCO)c3ccccc3n2)cc1C [NCGC00273600-02]
3. CCOC(=O)c1c(NC(=O)c2ccccc2)sc2c(O)c(CN(CC)CC)ccc12 [MLS000523141-01]

1. 103
2. 96
3. 91

I need viability at 48 h, 1 µM for every entry listed below, if you could help.
1. COc1ccc(C)cc1N(C(=O)COc1cccc(F)c1)c1nc2ccccc2s1 [MLS000394477-01]
2. Oc1cc(Cc2ccccc2)cnc1CN1CCCCC1 [MLS000104838-01]

1: 91; 2: 98

Return reported viability at 48 h, 1 µM; argument: CCCN(CCC)CCNC(=O)c1cc2c(-c3ccc(Cl)cc3)nn(C)c2s1 [NCGC00108997-01]
102

---

- Tested on: P. falciparum Dd2 (clone B2) asexual blood stage parasites
- Protocol notes: P. falciparum Dd2 asexual blood stage SYBR Green-I 72 h proliferation assay (qHTS)
- Type: cell-based, Plasmodium falciparum
- Conditions used: Plasmodium falciparum, DD2, 72 h, SYBR Green 72 h; approximate value in μM; read-out: AC50 [μM], Dd2-B2 (parental line) (converted)
Value type: AC50 (µM)
One number for each entry, in µM.

Check out these entries, answers already filled in.
> print(dat)
                            compound.string  unit.string  measured
1  CCCN1C(CC(C)C)=NS(=O)(=O)c2cc(NC(=O)c3ccc(Cl)cc3)ccc21           µM      1.26
2  CCCN1C(CC(C)C)=NS(=O)(=O)c2cc(NC(=O)c3cccs3)ccc21           µM     0.219

--- query ---
Reported AC50 for CCCN1C(c2ccccc2)=NS(=O)(=O)c2cc(NC(=O)c3ccc(F)cc3)ccc21 : what is it?
0.894

---

Can you tell me viability at 48 h, 3 µM for the items I'm about to list?
- Protocol notes: in vitro
- Conditions used: human, HepG2-A16-CD81EGFP cells, uninfected
One number for each entry, in %.

Previously resolved entries follow.
> print(dat)
                                   compound  measured
1  CN(CC(=O)Nc1cccc(F)c1)C(=O)c1ccc(-c2cccc(C(F)(F)F)c2)o1 [MLS001139679-01]        99
2  CCN1CCN(c2cc(C)c3cc(NC(=O)c4cc(OC)c(OC)c(OC)c4)ccc3n2)CC1 [NCGC00137500-01]       103
3  C=C(C)CSc1nc2sc3c(c2c(=O)n1C1CCCCC1)CCN(C)C3 [MLS000779440-01]        91

For the compound Cc1nn2c(c1-c1ccccc1-c1ccccc1)N(CC1CC1)CCC2 [NCGC00420435-01] , what viability at 48 h, 3 µM is on record?
53.6

---

For each record, write down the corresponding viability at 48 h, 3 µM.
- Protocol notes: in vitro
- Conditions used: human, HepG2-A16-CD81EGFP cells, uninfected
Answers are plain numbers, in %.

A selection of reference data follows.
> print(dat)
                                   molecule               value.type  measured
1  CCCCCCSc1ccc([C@H]2N[C@@](Cc3ccccc3)(C(=O)OC)[C@H]3C(=O)N(C)C(=O)[C@@H]23)cc1  viability at 48 h, 3 µM       100
2  O=C(Nc1nc(-c2ccccn2)cs1)c1cccc(S(=O)(=O)N2CCOCC2)c1  viability at 48 h, 3 µM        60
3  CC1=C(CC(=O)c2ccc(Cl)cc2)C(=O)c2ccccc2C1=O  viability at 48 h, 3 µM       100
4   CCO.Nc1nc(N)c2cc(Sc3ccc4ccccc4c3)ccc2n1  viability at 48 h, 3 µM        93
5  CCOC(=O)c1nnn(-c2nonc2-n2cccc2)c1CN1CCCCC1  viability at 48 h, 3 µM       100

# per-item lookup of viability at 48 h, 3 µM; items listed below
1. Cc1cccc(CSc2nn3c(=O)c(C)nnc3s2)c1
2. Cc1ccc2oc(=O)c3cnn(CC(=O)Nc4cccc(C(F)(F)F)c4)c3c2c1
3. CCCN(CCC)CCCN=C(S)Nc1ccc2nc(N3CCCC3)cc(C)c2c1
4. Cc1nn(-c2ccc([N+](=O)[O-])cc2)c2c1C(c1cccc(Br)c1)N1C(=N2)C(=O)Nc2ccccc21 (stereo not shown)
5. O=C(Nc1c(C(=O)c2ccccc2)oc2ccccc12)c1cc(-c2ccccc2O)n[nH]1
6. CCc1ccc(Oc2c(C(F)(F)F)oc3c(CN4CCN(CC)CC4)c(O)ccc3c2=O)cc1
7. Cc1ccccc1CC(=O)NCc1nnc2cc(-c3nc(C4CC4)no3)ccn12
8. CC(C)Nc1ccc(Nc2ccnc3cc4ccccc4cc23)cc1

100
94.8
103
102
99
95.7
107
78

Please report viability at 48 h, 3 µM for every entry that follows.
1. COc1cccc(NC(=O)CN(C)C(=O)c2ccc(-c3ccc(Cl)cc3)o2)c1
2. Oc1ccc(CN2CC(CNc3ccccc3)C3(C2)CN(c2ccccc2)C3)cc1 (stereo not shown)
3. CCOc1cc(C(=O)N2CCC(CC3CC(c4cccc(Br)c4)=NO3)(C(=O)NCC3CCCCC3)CC2)cc(OCC)c1OCC (stereo not shown)

100
106
103

Ref: paper PMC7822874
